Provenance of the data: patent US20240034757A1

- target: T1, P467_RHIPU (Rhipicephalus pulchellus, UniProt L7M8Z8 22-127);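 further: biolayer interferometry on an Octet system: chemokines at several doses tested against tick chemokine-binding proteins, association, equilibrium and dissociation curves fitted to derive Kd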
- T1 sequence: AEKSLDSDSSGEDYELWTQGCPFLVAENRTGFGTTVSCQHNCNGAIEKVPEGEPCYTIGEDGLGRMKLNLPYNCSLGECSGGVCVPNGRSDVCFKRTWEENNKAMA
- protocol-notes: BLI
Property: pKd; scope: individual binders
Entry type: numeric. Quantity: pKd, the -log10 of concentration in molar units.

Data request: Find the recorded pKd belonging to CCL3L1_HUMAN (ligand) APLAADTPTACCFSYTSRQIPQNFIADYFETSSQCSKPSVIFLTKRGRQVCADPSEEWVQKYVSDLELSA and report it.
Data returned: 9.28

Data request: Also check CCL5_HUMAN (ligand) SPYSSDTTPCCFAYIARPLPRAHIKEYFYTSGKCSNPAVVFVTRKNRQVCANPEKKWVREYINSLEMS
Data returned: 8.12

Data request: Also check CCL4_HUMAN (ligand) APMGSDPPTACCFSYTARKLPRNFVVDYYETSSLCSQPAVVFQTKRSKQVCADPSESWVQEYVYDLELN
Data returned: 7.87

Data request: Also check CCL3_HUMAN (ligand) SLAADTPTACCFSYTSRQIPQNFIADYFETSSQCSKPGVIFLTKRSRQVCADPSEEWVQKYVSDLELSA
Data returned: 9.44

Data request: Also check CCL18_HUMAN (ligand) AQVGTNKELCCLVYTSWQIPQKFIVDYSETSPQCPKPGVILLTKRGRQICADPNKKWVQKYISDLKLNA
Data returned: 7.78

New cases:
Data request: Find the recorded pKd belonging to CCL16_HUMAN (ligand) QPKVPEWVNTPSTCCLKYYEKVLPRRLVVGYRKALNCHLPAIIFVTKRNREVCTNPNDDWVQEYIKDPNLPLLPTRNLSTVKIITAKNGQPQLLNSQ and report it.
Data returned: 7.85

Data request: Also check CCL1_HUMAN (ligand) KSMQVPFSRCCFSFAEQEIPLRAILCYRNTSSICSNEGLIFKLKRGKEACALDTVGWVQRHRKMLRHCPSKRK
Data returned: 7.27

Data request: Also check CCL14_HUMAN (ligand) TESSSRGPYHPSECCFTYTTYKIPRQRIMDYYETNSQCSKPGIVFITKRGHSVCTNPSDKWVQDYIKDMKEN
Data returned: 8.38

Data request: Also check CCL8_HUMAN (ligand, UniProt P80075 24-99, looked up) QPDSVSIPITCCFNVINRKIPIQRLESYTRITNIQCPKEAVIFKTKRGKEVCADPKERWVRDSMKHLDQIFQNLKP
Data returned: 8.55

Data request: Also check CCL4L1_HUMAN (ligand) APMGSDPPTACCFSYTARKLPRNFVVDYYETSSLCSQPAVVFQTKRGKQVCADPSESWVQEYVYDLELN
Data returned: 8.33
